# Test system: DMPK
# procedure.details: DMPK knockdown by transfected antisense oligonucleotides in DM1 C15 myotubes at 0.5 nM and 50 nM
# Format: cell-based
# experimental.conditions: 0.5 nM oligonucleotide, 72 hours, relative to vehicle control = 1.00
# Description: Two hundred and thirty-six oligonucleotides for targeting DMPK were generated using in silico analysis. Each individual oligonucleotide was evaluated for their ability to target DMPK in cellulo at two doses—0.5 nM (low dose) and 50 nM (high dose). Briefly, DM1 C15 immortalized myoblasts were cultured in T-75 flasks until near confluency (˜80% confluent). Myoblasts were then disrupted with trypsin and seeded into 96-well microplates at a density of 50,000 cells/well. […]
measured.attribute: Normalized DMPK Remaining

Worked set:
> print(dat)
                                  substance         measured.attribute  result
1  388 (UGGAACACGGACGGCCCGGC; chemistry not given here) [compound 388]  Normalized DMPK Remaining    1.02
2  458 (GUCGGCCAGGCGGAUGUGGC; chemistry not given here) [compound 458]  Normalized DMPK Remaining    0.85

Provide Normalized DMPK Remaining values for the following items, in order.
1. 471 (UCGGCCAGGCGGAUGUGGCC; chemistry not given here) [compound 471]
2. 443 (CCAUCCGCUCCUGCAACUGC; chemistry not given here) [compound 443]

(A)
1: 0.73; 2: 0.80
